// provenance: ChEMBL document CHEMBL4052698

Assay: Oral bioavailability in C57/black 6J mouse at 20 mg/kg by LC-MS/MS method
Format: ADME, organism-based
Details: C57/black 6J, in vivo
Catalogue of compounds with associated bioavailability
PARAMETER MEASURED: bioavailability (%)

1. CCc1ccc(-c2noc(C(F)(F)F)c2COc2c(F)cc(CCC(=O)O)cc2F)cc1 | 78.7
2. O=C(O)CCc1cc(F)c(OCc2c(-c3ccc(Cl)cc3)noc2C(F)(F)F)c(F)c1 | 93

---

Catalogue of molecules with associated remaining at 10 min
Assay: Stability in mouse liver microsomes assessed as parent compound remaining after 10 mins
Assay type: ADME, microsome
Conditions: read-out: Stability
PARAMETER MEASURED: remaining at 10 min (%)

1) Cc1c(CCC(=O)O)ccc(OCc2c(-c3ccc(Cl)cc3)noc2C(F)(F)F)c1C | 91.2
2) CCc1onc(-c2ccc(Cl)cc2)c1COc1ccc(CCC(=O)O)c(C)c1C | 50.2
3) Cc1ccc(-c2noc(C(F)(F)F)c2COc2c(F)cc(CC(C)C(=O)O)cc2F)cc1 (stereo unspecified) | 86.3
4) O=C(O)CCc1cc(F)c(OCc2c(-c3ccc(Cl)cc3)noc2C(F)(F)F)c(F)c1 | 105
5) O=C(O)CCc1cc(F)c(OCc2c(-c3ccc(Br)cc3)noc2C(F)(F)F)c(F)c1 | 94.1
6) O=C(O)CCc1cc(F)c(OCc2c(-c3ccccc3)noc2C(F)(F)F)c(F)c1 | 93
7) O=C(O)CCc1cc(F)c(OCc2c(-c3ccc(F)cc3Cl)noc2C(F)(F)F)c(F)c1 | 99.3
8) CCCc1onc(-c2ccc(Cl)cc2)c1COc1ccc(CCC(=O)O)c(C)c1C | 48.3
9) Cc1ccc(-c2noc(C(F)(F)F)c2COc2c(F)cc(CCC(=O)O)cc2F)cc1 | 84.5
10) O=C(O)CCc1cc(F)c(OCc2c(-c3ccc(F)cc3)noc2C(F)(F)F)c(F)c1 | 119
11) O=C(O)CCc1ccc(OCc2c(-c3ccc(Cl)cc3)noc2C(F)(F)F)c(F)c1F | 109

---

Catalogue of compounds with associated pEC50
Target: UniProtKB Q5NUL3
Sequence (Q5NUL3 whole entry, looked up, change not shown, canonical isoform): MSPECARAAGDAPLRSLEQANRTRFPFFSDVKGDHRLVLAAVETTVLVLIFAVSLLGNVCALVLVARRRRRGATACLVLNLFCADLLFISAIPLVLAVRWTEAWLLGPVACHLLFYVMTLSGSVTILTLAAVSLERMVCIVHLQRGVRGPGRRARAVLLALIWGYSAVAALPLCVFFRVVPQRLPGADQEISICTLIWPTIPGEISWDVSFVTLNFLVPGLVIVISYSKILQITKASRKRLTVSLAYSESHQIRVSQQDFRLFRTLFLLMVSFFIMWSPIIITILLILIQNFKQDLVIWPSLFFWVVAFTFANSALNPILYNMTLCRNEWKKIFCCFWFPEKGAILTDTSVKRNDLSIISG
Experiment: Agonist activity at human GPR120 short splice variant expressed in HEK293 cells assessed as increase in intracellular calcium flux by Fluo-4 NW dye based FLIPR assay
Format: functional, cell-based
pEC50: −log10 of the molar value.
PARAMETER MEASURED: pEC50

1. Cc1ccc(-c2noc(C(F)(F)F)c2COc2c(F)cc(CC(C)C(=O)O)cc2F)cc1 (stereo not given) | 6.96
2. CCc1ccc(-n2nccc2COc2ccc(CCC(=O)O)c(C)c2C)cc1 | 6.28
3. Cc1cc(OCc2c(-c3ccc(Cl)cc3)noc2C(F)(F)F)c(F)cc1CCC(=O)O | 6.39
4. Cc1c(CCC(=O)O)ccc(OCc2c(-c3ccc(Cl)cc3)noc2-c2ccccc2)c1C | 5.55
5. O=C(O)CCc1cc(F)c(OCc2c(-c3ccc(C(F)(F)F)cc3)noc2C(F)(F)F)c(F)c1 | 6.47
6. CCc1ccc(-c2cscc2COc2ccc(CCC(=O)O)c(C)c2C)cc1 | 6.85
7. Cc1c(CCC(=O)O)ccc(OCc2conc2-c2ccc(Cl)cc2)c1C | 5.84
8. Cc1ccc(-c2noc(C(F)(F)F)c2COc2c(F)cc(CCC(=O)O)cc2F)cc1 | 6.92
9. Cc1c(CCC(=O)O)ccc(OCc2ccnn2-c2ccc(Cl)cc2)c1C | 6.21
